Tested on: HepG2 Srxn1-GFP reporter cells (+30 nM CDDO-Me)
Assay: Srxn1-GFP intensity median modified Z-score relative to plate median; higher = stronger NRF2 / oxidative stress reporter activation, active = hit call of the paper
Conditions: 10 µM; exposure time: 24h
Among all 2,300 compounds or so, about 330 (14%) showed activity. A selection follows.
parameter: Srxn1-GFP intensity median modified Z-score
Give bare numbers.

CCOC(=O)c1c(C)cc(O)c(C=O)c1O: -0.398
COC(=O)c1c(C)cc(OC(=O)c2c(C)cc(O)c(C=O)c2O)c(C)c1O: 12.5

Below are 3 molecules. Give each one its Srxn1-GFP intensity median modified Z-score.
1. C#C[C@]1(O)CCC2C3CCc4cc(O)ccc4C3CC[C@@]21C (some centres undefined)
2. CC(C)N=c1nccc[nH]1
3. O=c1c(-c2ccc(Br)cc2)coc2cc(O)ccc12

0.17
-0.779
0.373

====

System: HepG2 Srxn1-GFP reporter cells (+30 nM CDDO-Me)
Test: Srxn1-GFP intensity median modified Z-score relative to plate median; higher = stronger NRF2 / oxidative stress reporter activation, active = hit call of the paper
Conditions: 10 µM; exposure time: 24h
About 330 (14%) of roughly 2,300 compounds showed activity. Only a sample is shown.
Consider the following compounds; for each one, report its Srxn1-GFP intensity median modified Z-score.
Answers are plain numbers.

C#C[C@]1(OC(C)=O)CCC2C3CCC4=C[C@@H](OC(C)=O)CCC4C3CC[C@@]21C (some centres not stated): 2.28
CC1(C)CC[C@]2(C)CC[C@]3(C)C(=CCC4[C@@]5(C)CC[C@H](O)C(C)(C)C5CC[C@]43C)C2C1 (some centres not stated): 1.93

Report Srxn1-GFP intensity median modified Z-score for every entry below.
1. O=C(CCc1ccccc1)NCCO
2. O=c1cc(-c2ccccc2)oc2ccc(O)cc12
3. CC(=O)O[C@]1(C(C)=O)CCC2C3CC(C)=C4CC(=O)CC[C@]4(C)C3CC[C@@]21C (some centres not stated)
4. Cc1onc(-c2ccccc2)c1C(=O)NC1C(=O)N2C1SC(C)(C)C2C(=O)O (configuration not stated)
5. CCCCCCc1ccc(O)cc1O
6. O=c1cc(-c2ccccc2)oc2cc(O)ccc12
7. CC1(C)CC[C@]2(C(=O)O)CC[C@]3(C)C(=CCC4[C@@]5(C)CC[C@H](O)[C@@](C)(CO)C5CC[C@]43C)C2C1 (some centres not stated)
8. OC[C@H]1O[C@@H](Oc2ccc(Cl)cc2)[C@H](O)[C@@H](O)[C@H]1O

1.29
0.447
-0.198
-0.382
3.73
-0.269
-0.176
1.18

# batch size: 5; output Srxn1-GFP intensity median modified Z-score per entry
1. C[N+](C)(C)CCOP(=O)(O)OP(=O)(O)OC[C@H]1OC(n2ccc(=N)[nH]c2=O)[C@H](O)[C@@H]1O (some centres not stated)
2. CCCC(=O)N=c1[nH]cnc2c1ncn2C1O[C@@H]2COP(=O)(O)O[C@H]2[C@H]1OC(=O)CCC (some centres not stated)
3. C#C[C@]1(O)CCC2C3CCc4cc(OC)ccc4C3CC[C@@]21C (some centres not stated)
4. Nc1ccc(S(=O)(=O)N=c2cccc[nH]2)cc1
5. CN1C(C(=O)N=c2cccc[nH]2)C(=O)c2sccc2S1(=O)=O (configuration not stated)

-0.665
0.97
0.203
-0.029
-0.404

Would you mind listing Srxn1-GFP intensity median modified Z-score for each of the following compounds?
1. COc1ccc(SCC(=O)c2ccc(O)cc2O)cc1
2. O=c1cc(-c2ccccc2)oc2c(O)c(O)ccc12

[1.51, 4.14]

====

Test system: HepG2 Srxn1-GFP reporter cells (+30 nM CDDO-Me)
Assay: Srxn1-GFP intensity median modified Z-score relative to plate median; higher = stronger NRF2 / oxidative stress reporter activation, active = hit call of the paper
Details: 10 µM; exposure time: 24h
In all, about 2,300 compounds went through this assay and about 330 (14%) showed activity. These entries were drawn from the full list.
parameter: Srxn1-GFP intensity median modified Z-score
Numbers only.

Worked examples, 4 compounds total:
N=c1[nH]c(=O)c2ncn(COCCO)c2[nH]1 [euspeclibcmpd586]: 0.00752
COCCN(Cc1ccccn1)C(=O)C1CCN(C)C(=O)C1 (stereo not given): 0.317
CC(=O)NC(CCC(C)C)C(=O)O (stereo not given): 1.23
CCNC(=O)CCC(N)C(=O)O (stereo not given) [euspeclibcmpd2170]: -0.00834

Fill in Srxn1-GFP intensity median modified Z-score for each of the 6 compounds listed.
1. S=C=Nc1ccc(N=C=S)cc1 [euspeclibcmpd1177]
2. CCN(CC)CCNc1ccc(CO)c2sc3ccccc3c(=O)c12 [euspeclibcmpd550]
3. N=c1nc(-c2cc(Cl)ccc2Cl)[nH]c(=N)[nH]1 [euspeclibcmpd1188]
4. NC(=O)COC(=O)c1ccccc1Nc1cccc(C(F)(F)F)c1
5. O=S(=O)(O)c1cc(N=C=S)ccc1C=Cc1ccc(N=C=S)cc1S(=O)(=O)O [euspeclibcmpd1825]
6. [O-][n+]1cccc(CO)c1 [euspeclibcmpd1263]

20.6
13.8
0.145
1.26
-0.132
-0.263

====

Tested on: HepG2 Srxn1-GFP reporter cells (+30 nM CDDO-Me)
Assay: Srxn1-GFP intensity median modified Z-score relative to plate median; higher = stronger NRF2 / oxidative stress reporter activation, active = hit call of the paper
Details: 10 µM; exposure time: 24h
In all, about 2,300 compounds went through this assay and about 330 (14%) showed activity. Only a sample is shown.
Give Srxn1-GFP intensity median modified Z-score for every item shown.
Numbers only.

Below: 4 molecules and their reported Srxn1-GFP intensity median modified Z-score.
CC=C(C1=CC(=O)C(OC)=CC1=O)c1ccc(OC)cc1 [euspeclibcmpd1441]: 5.77
Cc1nc2n(c(=O)c1CCN1CCC(c3noc4cc(F)ccc34)CC1)CCCC2 [euspeclibcmpd909]: 0.484
CCS(=O)(=O)N1CCCC(C(=O)NCCCN(C)OC)C1 (configuration not stated): 0.974
Cc1cccc(Nc2ccccc2C(=O)O)c1C [euspeclibcmpd373]: 2.69

Batch request: Srxn1-GFP intensity median modified Z-score for each of the following molecules.
1. CC=C(C1=CC(=O)C=CC1=O)c1ccccc1 [euspeclibcmpd1643]
2. CCOC(=O)N=c1[nH]c2ccccc2[nH]1 [euspeclibcmpd787]
3. COc1c2ccoc2nc2c(OC)c(OCC(O)C(C)(C)O)ccc12 (configuration not stated) [euspeclibcmpd1658]
4. O=C(CC(=O)c1ccccc1)c1ccccc1 [euspeclibcmpd1779]
5. C=CCSCC=C [euspeclibcmpd1525]
6. CC(=O)OCC[N+](C)(C)C [euspeclibcmpd13]
7. CC1C(=NO)C[C@@H]2C[C@H]1C2(C)C (some centres not stated) [euspeclibcmpd1398]
8. O=C(O)c1ccccc1Nc1ccccc1 [euspeclibcmpd1737]

[1.51, -0.0391, 26, 2.2, 2.8, -0.276, -0.67, -0.16]

Would you mind listing Srxn1-GFP intensity median modified Z-score for each of the following molecules?
1. Cc1cccc(Nc2ccccc2C(=O)OCC#N)c1C
2. COC(=O)N=c1[nH]c2ccc([S+]([O-])c3ccccc3)cc2[nH]1 (configuration not stated) [euspeclibcmpd738]
3. O=C(c1ccccc1Nc1cccc(C(F)(F)F)c1)N1CCC1
4. CC(C)=CC1C(CO)C1(C)C (configuration not stated) [euspeclibcmpd1789]
5. CC1OC(O[C@H]2/C=C/C=C/C=C/C=C/C=C/C=C/C=C/[C@H](C)[C@@H](O)[C@@H](C)[C@H](C)OC(=O)CC(O)CC(O)CCC(O)C(O)CC(O)C[C@]3(O)C[C@H](O)C(C(=O)O)C(C2)O3)C(O)[C@H](N)C1O (some centres not stated) [euspeclibcmpd24]
6. COc1ccc(C(=O)NCc2ccc(CN(C)C)cc2)cc1OC

1: 0.491; 2: -0.824; 3: 1.38; 4: 2.3; 5: 1.97; 6: 0.376

Batch of 3 molecules: report Srxn1-GFP intensity median modified Z-score for each.
1. COC(=O)N=c1[nH]c2ccc(C(=O)c3ccccc3)cc2[nH]1 [euspeclibcmpd378]
2. CC(C)CCCC(C)[C@H]1CCC2C3CC=C4C[C@@H](OC(=O)c5ccccc5)CC[C@]4(C)C3CC[C@@]21C (some centres not stated) [euspeclibcmpd2185]
3. O=C(O)c1cc(N=Nc2ccc(O)c(C(=O)O)c2)ccc1O [euspeclibcmpd2114]

1. 19.3
2. -0.487
3. -0.278

I need Srxn1-GFP intensity median modified Z-score for every entry listed below, if you could help.
1. CC(C)CCCC(C)C1CCC2C3CC[C@H]4C[C@@H](O)CC[C@]4(C)C3CC[C@]12C (some centres not stated) [euspeclibcmpd2135]
2. CC=C(C1=CC(=O)C(OC)=CC1=O)c1ccc(O)cc1 [euspeclibcmpd1636]

1: 0.00623; 2: 0.385

I have 2 molecules here; please give me Srxn1-GFP intensity median modified Z-score for each one.
1. O=C(O)c1ccccc1 [euspeclibcmpd2047]
2. C=C(CC)C(=O)c1ccc(OCC(=O)O)c(Cl)c1Cl [euspeclibcmpd119]

0.122
14

Please look at the items below and tell me Srxn1-GFP intensity median modified Z-score for each one, in order.
1. Cc1cccc(C(=O)O)c1O [euspeclibcmpd1013]
2. O=C(O)c1ccccc1Nc1cccc(C(F)(F)F)c1 [euspeclibcmpd370]
3. CON(C)C(=O)c1ccccc1Nc1cccc(C(F)(F)F)c1
4. CCOC(=O)C1=CC(OC(CC)CC)[C@H](NC(C)=O)[C@@H](N)C1 (some centres not stated) [euspeclibcmpd2394]
5. COC(=O)N=c1[nH]c2ccc(Sc3ccccc3)cc2[nH]1 [euspeclibcmpd371]

1: -0.315; 2: 2.94; 3: 1.46; 4: -0.535; 5: 2.82

Required: Srxn1-GFP intensity median modified Z-score, one value per molecule below.
1. CC=C(C1=CC(=O)C(OC)=C(OC)C1=O)c1ccccc1 [euspeclibcmpd1978]
2. Cc1ccc(Cl)c(Nc2ccccc2C(=O)O)c1Cl [euspeclibcmpd2058]
3. C[C@@H]1CN(c2c(F)c(F)c3c(=O)c(C(=O)O)cn(C4CC4)c3c2F)C[C@H](C)N1 [euspeclibcmpd981]
4. Cc1nc2sccn2c(=O)c1CCN1CCC(=C(c2ccc(F)cc2)c2ccc(F)cc2)CC1 [euspeclibcmpd532]
5. CC(C)=CC1C(C(=O)O)C1(C)C (configuration not stated) [euspeclibcmpd2019]
6. C=C[C@](C)(O)CCC=C(C)C [euspeclibcmpd1465]

1. -0.444
2. 0.0269
3. -0.465
4. 7.86
5. 0.889
6. -0.00229

So what does the record say about Srxn1-GFP intensity median modified Z-score for COC(=O)[C@@]1(C)CCC[C@]2(C)c3ccc(O)c(C(C)C)c3CCC12 (some centres not stated) [euspeclibcmpd1676] ?
1.46

The values you see were collected from the supplement of paper PMC10498489.
